Measured log10 Ki of individual entries
target: Cathepsin B (Homo sapiens, UniProt P07858); test: Inhibition of human cathepsin B
Quick note: numbers are log10 of Ki, with nM as the unit.

INPUT: State the recorded log10 Ki for this entry: CCC(NC(=O)C(CC(C)C)NC(=O)OCc1ccccc1)C(=O)C(=O)NCCCN1CCOCC1 (stereo not given)
OUTPUT: 3.84

More entries:
INPUT: State the recorded log10 Ki for this entry: CCC(NC(=O)C(CC(C)C)NC(=O)OCc1ccccc1)C(=O)C(=O)NCCO (stereo not given)
OUTPUT: 3.65

INPUT: State the recorded log10 Ki for this entry: CCC(NC(=O)C(CC(C)C)NC(=O)OCc1ccccc1)C(=O)C(=O)NCc1ccco1 (stereo not given)
OUTPUT: 3.78

INPUT: State the recorded log10 Ki for this entry: CCC(NC(=O)C(CC(C)C)NC(=O)OCc1ccccc1)C(=O)C(=O)NCCc1cccn1C (stereo not given)
OUTPUT: 3.08

INPUT: State the recorded log10 Ki for this entry: CC(C)CC(NC(=O)C(c1ccccc1)c1ccccc1)C(=O)NC(Cc1ccccc1)C(=O)C(=O)NCCCN1CCOCC1 (stereo not given)
OUTPUT: 3.58

INPUT: State the recorded log10 Ki for this entry: CCC(NC(=O)C(CC(C)C)NC(=O)OCc1ccccc1)C(=O)C(=O)NCCOCCO (stereo not given)
OUTPUT: 3.30

INPUT: State the recorded log10 Ki for this entry: CCC(NC(=O)C(CC(C)C)NC(=O)OCc1ccccc1)C(=O)C(=O)NCCc1ccccc1OC (stereo not given)
OUTPUT: 2.80

INPUT: State the recorded log10 Ki for this entry: CC(C)CC(NC(=O)OCc1ccccc1)C(=O)NC(Cc1ccccc1)C(=O)C(=O)NCc1ccc2ccccc2n1 (stereo not given)
OUTPUT: 2.53

INPUT: State the recorded log10 Ki for this entry: CCC(NC(=O)C(CC(C)C)NC(=O)OCc1ccccc1)C(=O)C(=O)NCC1(C)CC(O)CC(C)(C)C1 (stereo not given)
OUTPUT: 2.95

###

target: Calpain-1 catalytic subunit (Homo sapiens); test: Inhibition of the cysteine protease human Calpain 1
Sequence (P07384 whole entry): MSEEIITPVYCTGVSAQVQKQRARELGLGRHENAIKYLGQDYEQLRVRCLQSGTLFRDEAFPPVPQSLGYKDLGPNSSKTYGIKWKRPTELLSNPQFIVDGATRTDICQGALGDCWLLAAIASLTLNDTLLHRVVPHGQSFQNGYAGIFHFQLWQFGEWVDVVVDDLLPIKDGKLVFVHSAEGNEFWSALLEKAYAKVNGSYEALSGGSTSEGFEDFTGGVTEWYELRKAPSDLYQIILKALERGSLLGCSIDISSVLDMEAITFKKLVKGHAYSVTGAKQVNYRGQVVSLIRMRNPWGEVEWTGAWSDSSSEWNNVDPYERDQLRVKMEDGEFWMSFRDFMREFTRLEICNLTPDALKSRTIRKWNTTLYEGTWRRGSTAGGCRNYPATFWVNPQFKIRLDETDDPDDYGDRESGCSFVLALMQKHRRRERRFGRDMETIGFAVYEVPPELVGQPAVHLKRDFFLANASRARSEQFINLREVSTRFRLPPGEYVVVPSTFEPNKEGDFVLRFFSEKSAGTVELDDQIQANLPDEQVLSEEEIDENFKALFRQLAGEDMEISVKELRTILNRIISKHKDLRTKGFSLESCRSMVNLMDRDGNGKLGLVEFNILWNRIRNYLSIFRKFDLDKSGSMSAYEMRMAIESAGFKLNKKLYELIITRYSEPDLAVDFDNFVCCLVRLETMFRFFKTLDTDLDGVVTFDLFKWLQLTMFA
Measured pKi of individual entries
FYI, pKi means -log10 of a concentration in mol per litre.

INPUT: State the recorded pKi for this entry: CC(C)CC(NC(=O)C(c1ccccc1)c1ccccc1)C(=O)NC(Cc1ccccc1)C(=O)C(=O)NCc1ccccn1 (stereo unspecified)
OUTPUT: 5.96

INPUT: State the recorded pKi for this entry: CCC(NC(=O)C(CC(C)C)NC(=O)OCc1ccccc1)C(=O)C(=O)NCCCN1CCCc2ccccc21 (stereo unspecified)
OUTPUT: 6.43

INPUT: State the recorded pKi for this entry: CCC(NC(=O)C(CC(C)C)NC(=O)OCc1ccccc1)C(=O)C(=O)NCCc1cccc(OC)c1 (stereo unspecified)
OUTPUT: 6.96

INPUT: State the recorded pKi for this entry: CCC(NC(=O)C(CC(C)C)NC(=O)OCc1ccccc1)C(=O)C(=O)NCCCN1CCOCC1 (stereo unspecified)
OUTPUT: 6.85

INPUT: State the recorded pKi for this entry: CCC(NC(=O)C(CC(C)C)NC(=O)OCc1ccccc1)C(=O)C(=O)NCCc1ccccc1OC (stereo unspecified)
OUTPUT: 6.89

INPUT: State the recorded pKi for this entry: CCC(NC(=O)C(CC(C)C)NC(=O)OCc1ccccc1)C(=O)C(=O)NCC(O)c1cccc(C(F)(F)F)c1 (stereo unspecified)
OUTPUT: 6.46
